# system: Ionotropic glutamate receptor NMDA 1/2D (Rattus norvegicus) (UniProt P35439+Q62645)
# test_description: Partial agonist activity at recombinant rat GluN1/GluN2D NMDA receptor expressed in xenopus laevis oocytes by measuring maximum response by two-electrode voltage-clamp method relative to glycine
# Format: cell-based
# run_conditions: filed as partial agonist
readout: Rmax (%)

Reference set (5 entries):
line_notation	endpoint_unit	endpoint_value
N[C@H](CNC(=O)c1cc(Br)c(-c2ccccc2F)s1)C(=O)O	%	44
N[C@H](CNC(=O)c1ccc(-c2cccc(F)c2F)s1)C(=O)O	%	41
NCC(=O)O	%	100
N[C@H](CNC(=O)c1ccc(-c2ccccc2F)s1)C(=O)O	%	45
N[C@H](CNC(=O)c1ccc(-c2ccccc2)s1)C(=O)O	%	43

1. N[C@H](CNC(=O)c1ccc(-c2cccc(F)c2)s1)C(=O)O
2. N[C@H](CO)C(=O)O
Which record shows the lower Rmax: the first, 1 , or the second, 2 ? Return value: the label identifying the chosen record.
1
(1: 42%, 2: 93%)
